- system.tested: Recombinant HCV polymerase (Hepatitis C virus genotype 1b)
- Construct: Recombinant HCV polymerase was tested for its ability to perform primer/template-directed transcription
- assay.summary: biochemical
- setup.conditions: inhibition of polymerase-directed transcription; 30 min at 30° C; 30 nM enzyme; cpm data in triplicate
- Procedure: The compounds described herein were tested for activity with HCV polymerase. […] The filters were counted in a Packard Tri-Lux Microbeta scintillation counter (Packard Bioscience, Meriden, Conn.). […]
readout.kind: log10 of IC50 (log10 of the value in nM)
In our notation, the value equals log10 of IC50 in nM.

compound: COC(=O)c1ccc(CCC2(C3CCCC3)CC(O)=C(Cc3nc4nc(C)cc(C)n4n3)C(=O)O2)cc1Cl (centres unmarked) [B(9)]
readout.kind: log10 of IC50
quantitative.result: 0.78

compound: CCc1cc(CCC2(C3CCCC3)CC(O)=C(Cc3nc4nc(C)cc(C)n4n3)C(=O)O2)ccc1Cn1cncn1 (centres unmarked) [A(110)]
readout.kind: log10 of IC50
quantitative.result: 0.78

compound: CC(C)(C#N)c1ccc(CCC2(C3CCCC3)CC(O)=C(Cc3cn4nccnc4n3)C(=O)O2)cc1Cl (centres unmarked) [B(14)]
readout.kind: log10 of IC50
quantitative.result: 1.41

compound: Cc1cc(C)n2nc(CC3=C(O)CC(CCc4cc(CC(F)(F)F)nc(CC(F)(F)F)c4)(C4CCCC4)OC3=O)nc2n1 (single isomer, unassigned; enantiomer 2) [A(11)]
readout.kind: log10 of IC50
quantitative.result: 0.90

compound: CCc1cc(CCC2(C3CCCC3)CC(O)=C(Cc3nc4nc(C)cc(C)n4n3)C(=O)O2)ccc1C (centres unmarked) [A(111)]
readout.kind: log10 of IC50
quantitative.result: 0.70

What does the record list as log10 of IC50 for COc1cnc(C)cc1CCC1(C2CCCC2)CC(O)=C(Cc2nc3nc(C)cc(C)n3n2)C(=O)O1 (centres unmarked) [A(8)] ?
2.00

Tell me the measured log10 of IC50 of CCc1cc(CCC2(C3CCCC3)CC(O)=C(Cc3nc4nc(C)cc(C)n4n3)C(=O)O2)ccc1CO (single isomer, unassigned; enantiomer 1) [A(114)] , please.
0.70

Value lookup for log10 of IC50; key = Cc1cc(C)n2nc(CC3=C(O)CC(CCc4ccc([C@@H](C)NS(=O)(=O)CC(F)(F)F)cc4)(C4CCCC4)OC3=O)nc2n1 (some centres unmarked) [A(82)]
1.81

Look up log10 of IC50 for this compound: CCc1cc(CCC2(C3CCCC3)CC(O)=C(Cc3nc4nc(C)cc(C)n4n3)C(=O)O2)ccc1CNC(C)=O (centres unmarked) [A(131)]
0.30

Reported log10 of IC50 for CCc1cc(CCC2(C3CCCC3)CC(O)=C(Cc3nc4nc(C)cc(C)n4n3)C(=O)O2)ccc1COC (centres unmarked) [A(120)] : what is it?
0.85

What measured log10 of IC50 goes with CCc1cc(CCC2(C3CCCC3)CC(O)=C(Cc3nc4nc(C)cc(C)n4n3)C(=O)O2)ccc1-c1ncco1 (centres unmarked) [A(134)] ?
0.48

---

- system.tested: Recombinant HCV polymerase (Hepatitis C virus genotype 1b)
- Construct: Recombinant HCV polymerase was tested for its ability to perform primer/template-directed transcription
- assay.summary: biochemical
- setup.conditions: inhibition of polymerase-directed transcription; 30 min at 30° C; 30 nM enzyme; cpm data in triplicate
pIC50: −log10 of the molar value.
Assign class by pIC50: not lower than 8 means Met; lower than 8 means Not met.

Study these solved cases before continuing.
compound: CCOc1cnc(CC)cc1CCC1(C2CCCC2)CC(O)=C(Cc2nc3nc(C)cc(C)n3n2)C(=O)O1 (stereo not drawn) [A(27)]
system.tested: Recombinant HCV polymerase (Hepatitis C virus genotype 1b)
label.class: Met
--
compound: CCc1cc(CCC2(C3CCCC3)CC(O)=C(Cc3nc4nc(C)cc(C)n4n3)C(=O)O2)ccc1CNS(C)(=O)=O (single isomer, unassigned; enantiomer 1) [A(129)]
system.tested: Recombinant HCV polymerase (Hepatitis C virus genotype 1b)
label.class: Met
--
compound: Cc1nc(CC2=C(O)CC(CCc3ccc(C(C)(C)C#N)c(F)c3)(C3CCCC3)OC2=O)n(C)n1 (stereo not drawn)
system.tested: Recombinant HCV polymerase (Hepatitis C virus genotype 1b)
label.class: Not met
--
compound: Cc1cc(C)n2nc(CC3=C(O)CC(CCn4cc(Br)ccc4=O)(C4CCCC4)OC3=O)nc2n1 (stereo not drawn)
system.tested: Recombinant HCV polymerase (Hepatitis C virus genotype 1b)
label.class: Not met
--
compound: Cc1cc(C)n2nc(CC3=C(O)CC(CCc4ccc(C(=O)O)c(F)c4)(C4CCCC4)OC3=O)nc2n1 (stereo not drawn)
system.tested: Recombinant HCV polymerase (Hepatitis C virus genotype 1b)
label.class: Not met
--
compound: CCCOc1cc(O)c(CCC2(C3CCCC3)CC(O)=C(Cc3nc4ncc(C)cn4n3)C(=O)O2)cc1CC (stereo not drawn)
system.tested: Recombinant HCV polymerase (Hepatitis C virus genotype 1b)
label.class: Met
--
compound: COc1cc(O)c(C(C)=O)cc1CCC1(C2CCCC2)CC(=O)CC(=O)O1 (stereo not drawn)
system.tested: Recombinant HCV polymerase (Hepatitis C virus genotype 1b)
label.class: Not met
--
compound: Cc1cc(C)n2nc(CC3=C(O)CC(CCc4ccc(O)c(C(F)(F)F)c4)(C4CCCC4)OC3=O)nc2n1 (stereo not drawn)
system.tested: Recombinant HCV polymerase (Hepatitis C virus genotype 1b)
label.class: Met

Does CCc1cc(CCC2(C3CCCC3)CC(=O)CC(=O)O2)ccc1NS(C)(=O)=O (stereo not drawn) have a reported pIC50 of at least 8?
Not met

Quick check, pIC50 >= 8? CCn1nc(C)c(CC2=C(O)CC(CCc3ccc(OC(C)C)c(Cl)c3)(C3CCCC3)OC2=O)c1C (stereo not drawn)
Not met

Is the recorded value of pIC50 equal to or greater than 8 for this compound? Cc1cc(C)n2nc(CC3=C(O)CC(CCc4ccc(C(C)(C)O)c(C)c4)(C4CCCC4)OC3=O)nc2n1 (stereo not drawn)
Not met

Is pIC50 for CCn1cc(CCC2(C3CCCC3)CC(O)=C(Cc3nc4nc(C)cc(C)n4n3)C(=O)O2)cn1 (stereo not drawn) at or above 8?
Not met

Given the entry Cc1cnc2nc(CC3=C(O)CC(CCc4ccc(C(C)(C)O)c(Cl)c4)(C4CCCC4)OC3=O)nn2c1 (stereo not drawn) , answer whether its pIC50 meets or surpasses 8.
Not met

Hi, just wondering whether CCc1cc(CCC2(C3CCCC3)CC(O)=C(Cc3nc4nc(C)cc(C)n4n3)C(=O)O2)ccc1CNCC1CC1 (stereo not drawn) shows pIC50 of 8 or higher.
Not met

Form field: pIC50 at least 8? Entry: Cc1cc(C)n2nc(N(C)C3C(=O)CC(CCc4ccc(C(C)(C)C#N)c(Cl)c4)(C4CCCC4)OC3=O)nc2n1 (stereo not drawn)
Not met

Does the compound Cn1cc(CC2=C(O)CC(CCc3ccc(C(C)(C)C#N)c(F)c3)(C3CCCC3)OC2=O)cn1 (stereo not drawn) have recorded pIC50 that is 8 or more?
Not met

---

- system.tested: Recombinant HCV polymerase (Hepatitis C virus genotype 1b, UniProt P26663)
- Construct: Recombinant HCV polymerase was tested for its ability to perform primer/template-directed transcription
- Sequence (P26663 2420-3010): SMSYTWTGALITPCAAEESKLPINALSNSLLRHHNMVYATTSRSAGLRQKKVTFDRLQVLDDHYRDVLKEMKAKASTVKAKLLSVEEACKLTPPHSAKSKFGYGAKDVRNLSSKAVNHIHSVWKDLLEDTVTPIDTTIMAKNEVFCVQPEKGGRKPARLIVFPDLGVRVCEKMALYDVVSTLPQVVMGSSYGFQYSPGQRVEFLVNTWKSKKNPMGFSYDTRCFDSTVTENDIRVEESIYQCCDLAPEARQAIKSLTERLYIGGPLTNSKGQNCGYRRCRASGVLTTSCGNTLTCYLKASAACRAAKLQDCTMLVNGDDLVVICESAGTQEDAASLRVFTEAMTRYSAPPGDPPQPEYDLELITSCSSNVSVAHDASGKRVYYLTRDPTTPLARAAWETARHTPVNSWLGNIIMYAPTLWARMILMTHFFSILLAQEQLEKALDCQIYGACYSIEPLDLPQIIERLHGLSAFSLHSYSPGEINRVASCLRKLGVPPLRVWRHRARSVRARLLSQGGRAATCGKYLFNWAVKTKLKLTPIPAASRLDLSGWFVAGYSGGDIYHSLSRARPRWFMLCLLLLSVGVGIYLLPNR
- assay.summary: biochemical
- setup.conditions: inhibition of polymerase-directed transcription; 30 min at 30° C; 30 nM enzyme; cpm data in triplicate
Quick list: log10(IC50) per entry.
Kindly note that the scale is log10 and the underlying IC50 is in nM.

compound: CCc1cc(CCC2(C3CCCC3)CC(O)=C(Cc3nc4nc(C)cc(C)n4n3)C(=O)O2)ccc1C(=O)NC (centres unmarked)
system.tested: Recombinant HCV polymerase (Hepatitis C virus genotype 1b, UniProt P26663)
log10(IC50): 0.78

Consider the compound CCCOc1cc(O)c(CC)cc1CCC1(C2CCCC2)CC(O)=C(Cc2nc3nc(C)cc(C)n3n2)C(=O)O1 (centres unmarked) and give its measured log10(IC50).
0.48

Fill in: log10(IC50) of Cc1cc(C)n2nc(CC3=C(O)CC(CCc4ccc(C(=O)O)c(Cl)c4)(C4CCCC4)OC3=O)nc2n1 (centres unmarked) is ___
2.04

What log10(IC50) value was documented for this compound, Cc1cc(C)n2nc(CC3=C(O)CC(CCc4ccc([C@@H](C)NC(=O)OC(C)(C)C)cc4)(C4CCCC4)OC3=O)nc2n1 (some centres unmarked) ?
2.20

Would you mind telling me what log10(IC50) value was observed for CS(=O)(=O)c1ccc(CCC2(C3CCCC3)CC(=O)CC(=O)O2)cc1F (centres unmarked) ?
4.27

log10(IC50) lookup needed for CCc1cc(CCC2(C3CCCC3)CC(=O)CC(=O)O2)ccc1OCCN(C)C(=O)OC(C)(C)C (centres unmarked) , thanks.
4.67
